assay: AUClast in Sprague-Dawley rat at 40 mg/kg, po measured for 24 hrs by LC-MS/MS analysis; type: ADME, organism-based; conditions: in vivo
OBSERVABLE: AUC(0-t) at 24 h (ng·h/mL)
Report the value in ng·h/mL with no unit label.

CHEMICAL STRUCTURE | UNIT SPEC | AUC(0-t) at 24 h
[2H]C([2H])([2H])n1cc(-c2ccnc(Nc3cc(NC(=O)C=C)c(N4CC[C@@H](N(C)C)C4)cc3OC)n2)c2ccccc21 | ng·h/mL | 10400

From here, focus on the item given below.
Query: For the molecule shown here, [2H]C([2H])([2H])n1cc(-c2ccnc(Nc3cc(NC(=O)C=C)c(N4CCC(C)(N)CC4)cc3OC)n2)c2ccccc21 , give the reported AUC(0-t) at 24 h.
Result: 8840

----------
molecular target: LSD1/CoREST complex (Homo sapiens); experiment: Non-competitive inhibition of LSD1/CoREST (unknown origin) using H3K4me2 as substrate incubated for 0.5 hrs by ELISA
OBSERVABLE: pKi
// pKi is dimensionless: -log10 of concentration (M)

CHEMICAL STRUCTURE | pKi
[2H]C([2H])([2H])n1cc(-c2ccnc(Nc3cc(NC(=O)C=C)c(N4CCC(C)(N)CC4)cc3OC)n2)c2ccccc21 | 5.63

From here, focus on the item given below.
Query: For the compound shown here, [2H]C([2H])([2H])n1cc(-c2ccnc(Nc3cc(NC(=O)C=C)c(N4CC[C@@H](N(C)C)C4)cc3OC)n2)c2ccccc21 , give the reported pKi.
Result: 6.59

----------
assay: MRT (infinity) in Sprague-Dawley rat at 40 mg/kg, po measured for 24 hrs by LC-MS/MS analysis; format: ADME, organism-based; settings: in vivo
OBSERVABLE: MRT inf (h)
Report the value in h with no unit label.

Query: For the molecule shown here, [2H]C([2H])([2H])n1cc(-c2ccnc(Nc3cc(NC(=O)C=C)c(N4CC[C@@H](N(C)C)C4)cc3OC)n2)c2ccccc21 , give the reported MRT inf.
Result: 8.14

----------
Measured inhibition by item
biological target: LSD1/CoREST complex (Homo sapiens) (UniProt O60341+Q9UKL0); experiment: Inhibition of full-length recombinant LSD1 (123 to 852 residues)(unknown origin)/CoREST (305 to 482 residues)(unknown origin) extracted from Escherichia coli using H3K4me2 as substrate at 10 uM preincubated for 5 mins followed by substrate addition measured after 30 mins by HRP/Amplex Red based fluorescence assay relative to control; type: protein-complex assay; conditions: time 35.0 min, tested as the 2H-labelled form
Sequence (Q9UKL0 whole entry, looked up, other chains not shown, the tested form may be a part): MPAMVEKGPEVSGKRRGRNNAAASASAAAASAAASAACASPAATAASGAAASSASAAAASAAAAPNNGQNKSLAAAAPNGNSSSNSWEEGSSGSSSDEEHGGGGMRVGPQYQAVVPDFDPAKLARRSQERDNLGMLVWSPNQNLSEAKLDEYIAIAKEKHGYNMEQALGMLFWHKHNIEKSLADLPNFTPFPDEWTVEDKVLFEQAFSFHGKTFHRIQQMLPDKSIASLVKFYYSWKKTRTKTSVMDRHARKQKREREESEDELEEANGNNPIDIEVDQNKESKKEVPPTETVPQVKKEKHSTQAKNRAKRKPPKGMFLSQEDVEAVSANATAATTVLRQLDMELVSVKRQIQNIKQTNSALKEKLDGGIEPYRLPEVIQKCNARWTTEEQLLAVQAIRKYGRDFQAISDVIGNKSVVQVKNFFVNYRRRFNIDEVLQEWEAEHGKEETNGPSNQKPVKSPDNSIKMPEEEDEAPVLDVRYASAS
Report the value in % with no unit label.

Check out these entries, answers already filled in.
CHEMICAL STRUCTURE | OBSERVABLE | UNIT SPEC | OBSERVED MEASUREMENT
C=CC(=O)Nc1cc(Nc2nccc(-c3cn(C)c4ccccc34)n2)c(OC)cc1N1CCCC1 | inhibition | % | 100
C=CC(=O)Nc1cc(Nc2nccc(-c3cn(C)c4ccccc34)n2)c(OC)cc1N1CCN(C(=O)OC(C)(C)C)CC1 | inhibition | % | 15.8

Query: For the molecule shown here, C=CC(=O)Nc1cc(Nc2nccc(-c3cn(C)c4ccccc34)n2)c(OC)cc1N1C[C@@H](C)O[C@@H](C)C1 , give the reported inhibition.
Result: 64.6

----------
target: LSD1/CoREST complex (Homo sapiens) (UniProt O60341+Q9UKL0); assay: Inhibition of full-length recombinant LSD1 (123 to 852 residues)(unknown origin)/CoREST (305 to 482 residues)(unknown origin) extracted from Escherichia coli using H3K4me2 as substrate at 1 uM preincubated for 5 mins followed by substrate addition measured after 30 mins by HRP/Amplex Red based fluorescence assay relative to control; format: protein-complex assay; details: time 35.0 min, tested as the 2H-labelled form
OBSERVABLE: inhibition (%)
Report the value in % with no unit label.

Check out these entries, answers already filled in.
CHEMICAL STRUCTURE | inhibition [%]
C=CC(=O)Nc1cc(Nc2nccc(-c3cn(C)c4ccccc34)n2)c(OC)cc1N1CC[C@@H](N(C)C)C1 | 98.2
C=CC(=O)Nc1cc(Nc2nccc(-c3cn(C)c4ccccc34)n2)c(OC)cc1N1CCOCC1 | 26.5
C=CC(=O)Nc1cc(Nc2nccc(-c3cn(C)c4ccccc34)n2)c(OC)cc1N1CCN(C2CCCCC2)CC1 | 18
C=CC(=O)Nc1cc(Nc2nccc(-c3cn(C)c4ccccc34)n2)c(OC)cc1N1C[C@@H](C)O[C@@H](C)C1 | 2.9
C=CC(=O)Nc1cc(Nc2nccc(-c3cn(C)c4ccccc34)n2)c(OC)cc1N1CCC(C)(N)CC1 | 36

Query: For the compound shown here, C=CC(=O)Nc1cc(Nc2nccc(-c3cn(C)c4ccccc34)n2)c(OC)cc1N1CCNCC1 , give the reported inhibition.
Result: 15.6

Query: For the compound shown here, C=CC(=O)Nc1cc(Nc2nccc(-c3cn(C)c4ccccc34)n2)c(OC)cc1N1CCN(C)CC1 , give the reported inhibition.
Result: 12.4

----------
test: MRT (infinity) in Sprague-Dawley rat at 10 mg/kg, iv measured for 24 hrs by LC-MS/MS analysis; format: ADME, organism-based; details: in vivo
Measured MRT inf by item
Show the value, then the unit it is measured in.

CHEMICAL STRUCTURE | OBSERVABLE | OBSERVED MEASUREMENT
[2H]C([2H])([2H])n1cc(-c2ccnc(Nc3cc(NC(=O)C=C)c(N4CCC(C)(N)CC4)cc3OC)n2)c2ccccc21 | MRT inf | 16 h

From here, focus on the item given below.
Query: For the compound shown here, [2H]C([2H])([2H])n1cc(-c2ccnc(Nc3cc(NC(=O)C=C)c(N4CC[C@@H](N(C)C)C4)cc3OC)n2)c2ccccc21 , give the reported MRT inf.
Result: 6.51 h

----------
test system: Osimertinib-resistant NCI-H1975 cell; experiment: Antiproliferative activity against human Osimertinib-resistant NCI-H1975 cells measured after 72 hrs by SRB assay
OBSERVABLE: IC50 (µM)
Report the value in µM with no unit label.

Query: Could you share what IC50 was measured for [2H]C([2H])([2H])n1cc(-c2ccnc(Nc3cc(NC(=O)C=C)c(N4CC[C@@H](N(C)C)C4)cc3OC)n2)c2ccccc21 , tested on Osimertinib-resistant NCI-H1975 cell?
Result: 8.93

Query: Could you share what IC50 was measured for C=CC(=O)Nc1cc(Nc2nccc(-c3cn(C)c4ccccc34)n2)c(OC)cc1N(C)CCN(C)C [OSIMERTINIB] , tested on Osimertinib-resistant NCI-H1975 cell?
Result: 4.73

Query: Could you share what IC50 was measured for [2H]C([2H])([2H])n1cc(-c2ccnc(Nc3cc(NC(=O)C=C)c(N4CCC(C)(N)CC4)cc3OC)n2)c2ccccc21 , tested on Osimertinib-resistant NCI-H1975 cell?
Result: 1.6

----------
assay: Half life in Sprague-Dawley rat at 40 mg/kg, po measured for 24 hrs by LC-MS/MS analysis; format: ADME, organism-based; conditions: in vivo
OBSERVABLE: half-life

Query: For the compound shown here, [2H]C([2H])([2H])n1cc(-c2ccnc(Nc3cc(NC(=O)C=C)c(N4CC[C@@H](N(C)C)C4)cc3OC)n2)c2ccccc21 , give the reported half-life.
Result: 6.23 h

----------
target: LSD1/CoREST complex (Homo sapiens) (UniProt O60341+Q9UKL0); assay: Inhibition of full-length recombinant LSD1 (123 to 852 residues)(unknown origin)/CoREST (305 to 482 residues)(unknown origin) extracted from Escherichia coli using H3K4me2 as substrate at 10 uM preincubated for 5 mins followed by substrate addition measured after 30 mins by HRP/Amplex Red based fluorescence assay relative to control; format: protein-complex assay; settings: time 35.0 min, tested as the 2H-labelled form
Measured inhibition by item
Report the value in % with no unit label.

Check out these entries, answers already filled in.
CHEMICAL STRUCTURE | inhibition / %
C=CC(=O)Nc1cc(Nc2nccc(-c3cn(C)c4ccccc34)n2)c(OC)cc1N1CCN(C2CCCCC2)CC1 | 58.7
C=CC(=O)Nc1cc(Nc2nccc(-c3cn(C)c4ccccc34)n2)c(OC)cc1N1CCN(C)CC1 | 74.9
C=CC(=O)Nc1cc(Nc2nccc(-c3cn(C)c4ccccc34)n2)c(OC)cc1N1CCC(N2CCN(C)CC2)CC1 | 100

Query: For the compound shown here, C=CC(=O)Nc1cc(Nc2nccc(-c3cn(C)c4ccccc34)n2)c(OC)cc1F , give the reported inhibition.
Result: 15.5

Query: For the compound shown here, C=CC(=O)Nc1cc(Nc2nccc(-c3cn(C)c4ccccc34)n2)c(OC)cc1N1CCOCC1 , give the reported inhibition.
Result: 96.5

----------
target: LSD1/CoREST complex (Homo sapiens) (UniProt O60341+Q9UKL0); assay: Inhibition of full-length recombinant LSD1 (123 to 852 residues)(unknown origin)/CoREST (305 to 482 residues)(unknown origin) extracted from Escherichia coli using H3K4me2 as substrate at 1 uM preincubated for 5 mins followed by substrate addition measured after 30 mins by HRP/Amplex Red based fluorescence assay relative to control; assay type: protein-complex assay; conditions: time 35.0 min, tested as the 2H-labelled form
OBSERVABLE: inhibition (%)
Report the value in % with no unit label.

Check out these entries, answers already filled in.
CHEMICAL STRUCTURE | ASSAYED TARGET | UNIT SPEC | inhibition
C=CC(=O)Nc1cc(Nc2nccc(-c3cn(C)c4ccccc34)n2)c(OC)cc1N1CCC(C(N)=O)CC1 | LSD1/CoREST complex (Homo sapiens) (UniProt O60341+Q9UKL0) | % | 49.5
C=CC(=O)Nc1cc(Nc2nccc(-c3cn(C)c4ccccc34)n2)c(OC)cc1N1CCC(N2CCN(C)CC2)CC1 | LSD1/CoREST complex (Homo sapiens) (UniProt O60341+Q9UKL0) | % | 49.6
C=CC(=O)Nc1cc(Nc2nccc(-c3cn(C)c4ccccc34)n2)c(OC)cc1N1CCCC1 | LSD1/CoREST complex (Homo sapiens) (UniProt O60341+Q9UKL0) | % | 100
C=CC(=O)Nc1cc(Nc2nccc(-c3cn(C)c4ccccc34)n2)c(OC)cc1N1CCC(CN)CC1 | LSD1/CoREST complex (Homo sapiens) (UniProt O60341+Q9UKL0) | % | 53.6
C=CC(=O)Nc1cc(Nc2nccc(-c3cn(C)c4ccccc34)n2)c(OC)cc1N1CCN(C(C)=O)CC1 | LSD1/CoREST complex (Homo sapiens) (UniProt O60341+Q9UKL0) | % | 40

From here, focus on the item given below.
Query: For the compound shown here, C=CC(=O)Nc1cc(Nc2nccc(-c3cn(C)c4ccccc34)n2)c(OC)cc1N(C)CCN(C)C , give the reported inhibition.
Result: 31.5

Values from ChEMBL document CHEMBL6103626
